Tested on: MOLP-8
Assay: In vitro cell viability assay (CellTiter-Glo, ATP levels), multiple myeloma cells
Assay type: cell-based
Details: Homo sapiens, MOLP-8, 168 h, 7-day incubation, CellTiter-Glo, average values; read-out: MOLP-8 IC50
pIC50: −log10 of the molar value.
Would you please tag the item satisfied when its pIC50 is 6 or above, and not satisfied when it is below?

COMPOUND: C/C(=C\C1CCN(CC2CC2)CC1)C(=O)N1CCC=CC1=O [Compound 77]
MEASURED_TARGET: MOLP-8
CLASS_ASSIGNMENT: not satisfied
//
COMPOUND: O=C(/C=C/c1ncccn1)N1CCC=C(Cl)C1=O [Compound 35]
MEASURED_TARGET: MOLP-8
CLASS_ASSIGNMENT: satisfied
//
COMPOUND: C/C(=C/C1CCNCC1)C(=O)N1CCC=CC1=O [Compound 87, 2,2,2-trifluoroacetate]
MEASURED_TARGET: MOLP-8
CLASS_ASSIGNMENT: not satisfied
//
COMPOUND: COc1cc(/C=C/C(=O)N2CC(O)C=CC2=O)cc2c1OCCO2 (centres unmarked) [Compound 25]
MEASURED_TARGET: MOLP-8
CLASS_ASSIGNMENT: satisfied
//
COMPOUND: O=C1C=CCCN1S(=O)(=O)/C=C/c1ncccn1 [Compound 66]
MEASURED_TARGET: MOLP-8
CLASS_ASSIGNMENT: satisfied
//
COMPOUND: O=C1C=CCCN1S(=O)(=O)/C=C/c1cccnc1 [Compound 11]
MEASURED_TARGET: MOLP-8
CLASS_ASSIGNMENT: satisfied
//
COMPOUND: O=C1C=CCCCN1C(=O)/C=C/c1ncccn1 [Compound 13]
MEASURED_TARGET: MOLP-8
CLASS_ASSIGNMENT: satisfied
//
COMPOUND: O=C1C=CCCCN1C(=O)/C=C/c1ccc2ccccc2n1 [Compound 15]
MEASURED_TARGET: MOLP-8
CLASS_ASSIGNMENT: satisfied
//
COMPOUND: COc1cc(/C=C(\C)C(=O)N2CCC=CC2=O)cc2c1OCCO2 [Compound 55]
MEASURED_TARGET: MOLP-8
CLASS_ASSIGNMENT: satisfied
//
COMPOUND: O=C1C=CCCCN1S(=O)(=O)/C=C/c1ccccc1 [Compound 14]
MEASURED_TARGET: MOLP-8
CLASS_ASSIGNMENT: not satisfied
//
COMPOUND: CC(C)(C)OC(=O)N1CCC(/C=C(\C(=O)N2CCC=CC2=O)c2ccccc2)CC1 [Compound 92]
MEASURED_TARGET: MOLP-8
CLASS_ASSIGNMENT: not satisfied
//
COMPOUND: O=C1C=CCCCN1C(=O)/C=C/c1cnc2c(c1)OCCO2 [Compound 26]
MEASURED_TARGET: MOLP-8
CLASS_ASSIGNMENT: satisfied
//
COMPOUND: O=C1C=CCCCN1C(=O)/C=C/c1cnc2ccccc2c1 [Compound 3]
MEASURED_TARGET: MOLP-8
CLASS_ASSIGNMENT: satisfied
